Target: T1, His-tagged human VISTA extracellular domain protein (in house) (human, UniProt Q9H7M9 33-194)
T1 construct: also called human VISTA ECD; hVISTA; not shown: His tag
T1 sequence: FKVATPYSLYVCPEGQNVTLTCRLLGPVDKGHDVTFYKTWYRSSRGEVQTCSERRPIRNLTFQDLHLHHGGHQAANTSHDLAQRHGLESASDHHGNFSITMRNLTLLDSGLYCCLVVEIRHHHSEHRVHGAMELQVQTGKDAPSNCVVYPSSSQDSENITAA
Test: ELISA, hybridoma supernatant on coated human VISTA ECD (2 µg/ml)
MEASURED_ATTRIBUTE: binding result

>>> observed_value("anti-VISTA antibody 16A1 (antibody, IgG1, V domains shown, Mouse monoclonal; Tested as hybridoma supernatant and as recombinant mIgG1) VH: QVQLQQSGAELMKPGASVKISCKATGYTFSSSWIEWVKQRPGHGLEWIGEIFPGSGSLNFNEKFKGKATFTADTSSNTAYLQLSSLTSDDSAVYYCARRPPGWFFDVWGAGTTVTVSS VL: DIVMTQSHKFMSTSVGDRVSITCKASQDVTTDVAWYQQKPGQSPKLLIYSASYRYTGVPDRFTGSGSGTDFTFTISSVQAEDLTVYYCQQHYSSPWTFGGGTKLEIK")
"binds"
